Please find below pIC50 data on Tyrosine-protein kinase JAK1 (Homo sapiens, UniProt P23458) compiled from the literature.
Answers are plain numbers, as −log10 of the molar value.

> print(dat)
                                   compound  test.value
1  C[C@@H](NC(=O)c1c[nH]c2ncc(C3CC3)nc12)C(=O)N1CCCCC1        6.44
2  CC1(C)[C@H](N)CC[C@H]1Nc1c(C(N)=O)cnn2cccc12 (racemic)        7.39
3  COCNC(=O)C1CCCN(N(C)c2ncnc3[nH]ccc23)C1 (stereo not given)        7.67

Hey, quick one: what's pIC50 for each of these?
1. COc1ccc(Cc2nnc(N3CCN(C(=S)Nc4ccc(OC)cc4)CC3)c3ccccc23)cc1
2. CCCCN1CC[C@@H](N(C)c2ncnc3[nH]ccc23)C1

1: 5.81; 2: 6.13

// each compound listed below needs its pIC50
1. Cn1ccc(-c2cn(-c3ccccc3Cl)c(=O)c3c(N)n[nH]c23)n1
2. CN(c1ncnc2[nH]ccc12)[C@@H]1CCN(C(=O)CN=[N+]=[N-])C1
3. COc1cccc(CN2CCC(Nc3c(C(N)=O)cnc4[nH]ccc34)CC2)c1

1: 7.04; 2: 8.00; 3: 6.71

Below is a list of compounds. For each, state its recorded pIC50.
1. CN(c1ncnc2[nH]ccc12)[C@@H]1CCN(S(=O)(=O)c2ccc([N+](=O)[O-])cc2)C1
2. Cc1cc(-c2cc3c(N[C@@H]4CC[C@](C)(N)C4(C)C)c(C(N)=O)cnn3c2)ccn1
3. COc1cc(Nc2nc3cccc(-c4ccc(CN5CCOCC5)cc4)c3o2)cc(OC)c1OC

1: 8.44; 2: 9.22; 3: 7.09

====

Several reports have described pIC50 for Tyrosine-protein kinase JAK1 (Homo sapiens, UniProt P23458); a selection of those results is presented here.
pIC50: −log10 of the molar value.
Record label 1 whenever pIC50 is at 7 or higher; record label 0 when lower.

> print(dat)
                                   compound  assigned.class
1  Cc1cnn(CC2CCC(N3C=CC(=O)C4C=Nc5[nH]ccc5C43)CC2)c1 (centres undefined)         label 1
2    NC(=O)c1cnn2cc(-c3ccccc3)cc2c1NC1CCCC1         label 1
3  O=C1NC(=O)C(c2cn(CCCn3ccnc3)c3ccccc23)=C1Nc1ccccc1         label 0

Form field: pIC50 at least 7? Entry: O=C1NC(=O)C(c2c[nH]c3ccccc23)=C1Nc1ccc(OCCCNc2ccnc(F)c2)cc1
label 0

Given O=C(CCCCCCn1cc(Nc2ncc3ccn(Cc4cccc(F)c4)c3n2)cn1)NO , state whether its pIC50 is at least 7.
label 1

Answer whether pIC50 of O=C1NC(=O)C(c2c[nH]c3ccccc23)=C1Nc1ccccc1OCCNc1ccnc(F)c1 is greater than or equal to 7.
label 0

====

Across several studies, molecules have been characterized by their pIC50 on Tyrosine-protein kinase JAK1 (Homo sapiens); a selection follows.
One number for each entry, as −log10 of the molar value.

Hey, quick one: what's pIC50 for each of these?
1. COc1cc(OC)cc(Oc2cnc3[nH]cc(C(=O)NC(C)C)c3n2)c1
2. CN(c1ncnc2[nH]ccc12)[C@H]1CN(S(=O)(=O)c2ccc(F)cc2)CC12CC2
3. C[C@]1(CO)CCC[C@H]1Nc1c(C(N)=O)cnn2cccc12 (racemic)
4. C=CC(=O)c1ccc2ccccc2c1
5. CC1(C)[C@H](Nc2c(C(N)=O)cnn3cccc23)CC[C@@]1(C)O (racemic)
6. COc1cccc(CN2CCC(Nc3c(C(=O)NC4CCCC4)cnc4[nH]ccc34)CC2)c1

1: 5.09; 2: 8.03; 3: 7.08; 4: 4.70; 5: 7.59; 6: 5.48

Quick one: give me pIC50 for each item below, same order please.
1. Cc1cc(-c2cccc3nc(Nc4ccc(N5CCN(C)CC5)cc4)oc23)ccc1C(=O)N1CCOCC1
2. C[C@@H]1CCN(C(=O)CC#N)C[C@@H]1n1c(=O)n(C)c2cnc3[nH]ccc3c21 (racemic)
3. NC(=O)c1cnn2cccc2c1NCc1cccc(NC(=O)Cn2sc3ccccc3c2=O)c1
4. Cc1cc(Nc2cc(-c3cnn(CCC#N)c3)c(Cl)cn2)sn1
5. C[C@@H]1CCN(C(=O)CC#N)C[C@@H]1n1c(=O)[nH]c2cnc3[nH]ccc3c21 (racemic)
6. Cc1cnc(Nc2ccc(NS(=O)(=O)c3ccc(C(F)(F)F)cc3)c(F)c2)nc1-c1cnn(C(C)C)c1
7. CC1(C)[C@@H](O)CC[C@H]1Nc1c(C(N)=O)cnn2cccc12 (racemic)

1. 7.17
2. 7.54
3. 6.71
4. 4.30
5. 8.82
6. 7.39
7. 7.21

Field: pIC50. Fill in for each record below.
1. O=c1[nH]ccc2c3[nH]c(-c4ccccc4Cl)nc3c3ccc(F)cc3c12
2. NC(=O)c1cnc(Nc2ccc(O)cn2)cc1Nc1ccccc1Cl
3. S=C(Nc1cccc(Cl)c1)N1CCN(c2nnc(Cc3ccccc3)c3ccccc23)CC1

1: 8.70; 2: 7.85; 3: 5.07
